We begin with a simple list: items and their reported Kd.
Molecular target: T1, human PACAP38 (human, not fully specified; C-terminal lysine is amidated; N-terminal or C-terminal biotin in the HTRF and PC-12 cell binding assays)
T1 construct: synthetic peptide, bought; also called huPACAP (1-38)
T1 peptide: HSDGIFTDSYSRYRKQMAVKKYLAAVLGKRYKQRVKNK
Assay: SPR, Ab immobilised
# value in nM; strip the unit string

Look at this binder and give its reported Kd. anti-PACAP antibody Ab3 (antibody, human IgG1, kappa, N297A, V domains shown, full-length rabbit/human chimeric antibody) VH: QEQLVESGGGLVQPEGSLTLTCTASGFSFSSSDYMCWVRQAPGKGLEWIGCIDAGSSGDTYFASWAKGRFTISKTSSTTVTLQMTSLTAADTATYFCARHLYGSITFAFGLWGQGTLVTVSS VL: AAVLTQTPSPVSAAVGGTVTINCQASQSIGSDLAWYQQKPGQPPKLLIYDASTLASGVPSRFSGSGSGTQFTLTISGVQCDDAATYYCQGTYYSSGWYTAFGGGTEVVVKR
0.16

Look at this binder and give its reported Kd. anti-PACAP antibody Ab4.H (antibody, human IgG1, kappa, N297A, V domains shown, humanized form of Ab4, full length) VH: EVQLVESGGGLVQPGGSLRLSCAASGFSLSSYDMSWVRQAPGKGLEWIGIINTNDDTWYASWVKGRFTISRDNSKNTLYLQMNSLRAEDTAVYYCARISDAYVFDYAYYFTLWGQGTLVTVSS VL: DIQMTQSPSTLSASVGDRVTITCLASQNIYNSLAWYQQKPGKAPKLLIYRASTLASGVPSRFSGSGSGTEFTLTISSLQPDDFATYYCQQGAGADNIGNPFGGGTKVEIKR
0.1

Look at this binder and give its reported Kd. anti-PACAP antibody Ab13 (antibody, human IgG1, kappa, N297A, V domains shown, full-length rabbit/human chimeric antibody) VH: QSVEESGGRLVTPGTPLTLTCTVSGFSLSSAAMNWVRQAPGKGLEWIGIIDNTAGTYYAPWAKGRFTISKTSSTTVDLKMTSPTTEDTATYFCARGGGEFFIWGPGTLVTVSS VL: AQVLTQTPSSVSAAVGGTVTINCQSSQSVHDGSYLSWYQQKPGQPPNFLIYQASNLASGVPSRFKGSGSGTQFTLTISDLECDDAATYYCAGGYSSNICGFGGGTEVVVKR
0.064
